- target: T1, 4H2608-AA
- T1 chain: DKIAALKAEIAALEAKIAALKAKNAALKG
- protocol-details: two-hybrid library CCmax;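 further: natural log of median RNA to DNA barcode read ratio; higher means stronger binding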
- condition-parameters: mean of both orientations
quantity-kind: interaction score

INSERT INTO assay_data (binder, quantity_kind, endpoint_result) VALUES
  ('DKIAALEAENAALEAKNAALKAKIAALKG [4H2238-AA]', 'interaction score', -1.6);

I = DKIAALEAKNAALKAENAALEAEIAALEG [4H2513-AA]
II = DEIAALKAKNAALKAKNAALKAEIAALEG [4H1017-AA]
Rank I against II by their interaction score values and give the higher one. Answer format: the label of the selected item.
I
(I: -1.07, II: -1.64)

a = DENAALEAKIAALKAEIAALEAKIAALKG [4H1350-AA]
b = DKIAALEAKNAALKAKIAALEAKNAALKG [4H2536-AA]
// which entry has the larger interaction score value, a or b ? Answer by quoting the chosen item's label.
a
(a: 1.38, b: -0.457)

I = DKIAALEAENAALEAKIAALEAENAALEG [4H2211-AA]
II = DENAALEAEIAALEAKNAALKAEIAALKG [4H1082-AA]
Could you kindly indicate whether I or II has the higher interaction score value? # reply format: chosen label
II
(II: 1.21, I: -0.966)
